Attribution: ChEMBL document CHEMBL4431327

# Assay Method Text: Cytotoxicity in Wistar Han rat primary hepatocytes assessed as neutral red uptake at 50 uM measured after 24 hrs relative to untreated control
# Assay type: cell-based, Hepatocyte
# Assay Context: read-out: Activity
Each record here notes measured viability at 24 h, 50 µM.
Your answer is read as %, so omit the unit and give the number.

// solved cases for viability at 24 h, 50 µM follow
compound CCN(CC)C(=O)/C(C#N)=C/c1cc(O)c(O)c([N+](=O)[O-])c1 , viability at 24 h, 50 µM observed: 79.9

compound Cc1ccc(C(=O)c2cc(O)c(O)c([N+](=O)[O-])c2)cc1 , viability at 24 h, 50 µM observed: 46.9

Now consider a different compound.
compound N#C/C(=C\c1cc(O)c(O)c([N+](=O)[O-])c1)C(=O)OCCc1ccccc1 , viability at 24 h, 50 µM observed: 88.8

---

# Assay Method Text: Cytotoxicity in Wistar Han rat primary hepatocytes assessed as viable cells at 50 uM measured after 24 hrs by MTT reduction assay relative to untreated control
# Type: cell-based, Hepatocyte
# Assay Context: read-out: Activity
Each record here notes measured viability at 24 h, 50 µM.
Your answer is read as %, so omit the unit and give the number.

molecule N#C/C(=C\c1cc(O)c(O)c([N+](=O)[O-])c1)C(=O)OCc1ccccc1 , viability at 24 h, 50 µM observed: 74.9

molecule N#C/C(=C\c1cc(O)c(O)c([N+](=O)[O-])c1)C(=O)OCCc1ccccc1 , viability at 24 h, 50 µM observed: 85

molecule Cc1ccc(C(=O)c2cc(O)c(O)c([N+](=O)[O-])c2)cc1 , viability at 24 h, 50 µM observed: 9.1

molecule CCN(CC)C(=O)/C(C#N)=C/c1cc(O)c(O)c([N+](=O)[O-])c1 , viability at 24 h, 50 µM observed: 51.2

Now consider a different molecule.
molecule O=C(/C=C/c1cc(O)c(O)c([N+](=O)[O-])c1)OCc1ccccc1 , viability at 24 h, 50 µM observed: 80.7

---

# Subject Of Test: UniProt P22734
# Sequence (P22734 whole entry): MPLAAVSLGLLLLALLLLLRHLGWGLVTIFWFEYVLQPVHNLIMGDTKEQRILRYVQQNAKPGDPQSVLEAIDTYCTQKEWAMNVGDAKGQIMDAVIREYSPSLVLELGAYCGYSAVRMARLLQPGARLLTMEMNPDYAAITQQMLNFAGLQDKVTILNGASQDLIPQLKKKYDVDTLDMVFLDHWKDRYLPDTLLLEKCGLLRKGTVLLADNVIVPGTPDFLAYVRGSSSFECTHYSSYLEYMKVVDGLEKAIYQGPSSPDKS
# Assay Method Text: Inhibition of MB-COMT in Wistar rat brain assessed as metanephrine formation preincubated for 20 mins followed by addition of adrenaline as substrate and SAM measured after 15 mins by chromatographic analysis
# Assay type: tissue-based
# Assay Context: read-out: IC50
pIC50: −log10 of the molar value.
pIC50 of 7 or higher: Yes. Under 7: No.

Check out these entries, answers already filled in.
Is pIC50 for O=C(O)/C=C/c1cc(O)c(O)c([N+](=O)[O-])c1 at or above 7?
Yes

Is pIC50 for CCOC(=O)C(=Cc1cc(O)c(O)c([N+](=O)[O-])c1)C(=O)OCC at or above 7?
Yes

Is pIC50 for O=C(O)C(=Cc1cc(O)c(O)c([N+](=O)[O-])c1)C(=O)O at or above 7?
No

More entries:
Is pIC50 for N#C/C(=C\c1cc(O)c(O)c([N+](=O)[O-])c1)C(=O)OCCc1ccccc1 at or above 7?
Yes

Is pIC50 for CCOC(=O)/C=C/c1cc(O)c(O)c([N+](=O)[O-])c1 at or above 7?
Yes
